System: NCI-H522 lung
Experiment: NCI tumour cell line growth inhibition, 48 h
MEASURED_METRIC: TGI

CCOC(=O)C1(C/C=C\CBr)CCCCCCC1=O (stereo not drawn); > 100 µM
COc1cc(NS(C)(=O)=O)ccc1N1Cc2cnc3ccc4[nH]ccc1c4c23; > 100 µM
O=C(Cc1nc2ccccc2s1)C(=O)Nc1ccccc1C(F)(F)F; > 100 µM
Cc1ccc(-c2c(C#N)c(O)n(NS(=O)(=O)c3ccccc3)c(=O)c2C#N)cc1; > 100 µM
O=C(Cl)c1cc([N+](=O)[O-])cc([N+](=O)[O-])c1; > 100 µM

Please indicate TGI recorded for Cc1nc2c(=O)n(C)c(=O)nc-2n(-c2ccc(Cl)cc2)c1C
> 100 µM

Fill in TGI for record COC(=O)c1cc2c([nH]c3ccccc32)c(-c2nc3cc(N(S(=O)(=O)c4ccc(C)cc4)S(=O)(=O)c4ccc(C)cc4)c(OC)cc3cc2CO)n1
> 100 µM

Hello, please tell me recorded TGI for this one: COCC(O)CN1C(N)=NC(O)C1O (stereo not drawn)
> 100 µM
